Assay Info: Pharmacokinetic study in rats after oral administration of Epimedium extract (HPLC-MS/MS of plasma)
Format: in vivo, Male Sprague-Dawley rats
Experimental Conditions: male, Sprague-Dawley; rat plasma, single oral dose of Epimedium extract 10 g/kg, n = 6; read-out: MRT(0-∞)
Experimental Readout: MRT inf (h)

As a guide, the following entries are already answered.
>>> numeric_result("COc1ccc(-c2oc3c(CC=C(C)C)c(OC4OC(CO)C(O)C(O)C4O)cc(O)c3c(=O)c2OC2OC(C)C(O)C(O)C2OC2OC(C)C(O)C(O)C2O)cc1 (stereo not drawn) [epimedin C]")
12.5
>>> numeric_result("O=C(/C=C/c1ccc(O)c(O)c1)O[C@H]1[C@H](O)C[C@](O)(C(=O)O)C[C@H]1O")
3.82
>>> numeric_result("COc1ccc(-c2oc3c(CC=C(C)C)c(O[C@@H]4O[C@H](CO)[C@@H](O)[C@H](O)[C@H]4O)cc(O)c3c(=O)c2O[C@@H]2O[C@@H](C)[C@H](O)[C@@H](O)[C@H]2O)cc1")
2.75
>>> numeric_result("COc1ccc(-c2oc3c(CC=C(C)C)c(O)cc(O)c3c(=O)c2O[C@@H]2O[C@@H](C)[C@H](O)[C@@H](O)[C@H]2O)cc1 [baohuoside I]")
15.7
>>> numeric_result("COc1ccc(-c2oc3c(CC=C(C)C)c(O)cc(O)c3c(=O)c2OC2OC(C)C(O)C(O)C2OC2OCC(O)C(O)C2O)cc1 (stereo not drawn) [sagittatoside B]")
14.9
>>> numeric_result("O=C(/C=C/c1ccc(O)c(O)c1)O[C@@H]1C[C@](O)(C(=O)O)C[C@@H](O)[C@H]1O")
3.91
>>> numeric_result("COc1ccc(-c2oc3c(CC=C(C)C)c(OC4OC(CO)C(O)C(O)C4O)cc(O)c3c(=O)c2OC2OC(C)C(O)C(O)C2OC2OCC(O)C(O)C2O)cc1 (stereo not drawn) [epimedin B]")
8.37
>>> numeric_result("COc1ccc(-c2oc3c(CC=C(C)C)c(OC4OC(CO)C(O)C(O)C4O)cc(O)c3c(=O)c2OC2OC(C)C(O)C(O)C2OC2OC(CO)C(O)C(O)C2O)cc1 (stereo not drawn) [epimedin A]")
14.1
>>> numeric_result("COc1ccc2c(c1O)-c1c(O)c(OC)cc3c1[C@H](C2)[N+](C)(C)CC3")
12.5
>>> numeric_result("COc1ccc(-c2oc3c(CC=C(C)C)c(O)cc(O)c3c(=O)c2O[C@@H]2O[C@@H](C)[C@H](O)[C@@H](O)[C@H]2O[C@@H]2O[C@H](CO)[C@@H](O)[C@H](O)[C@H]2O)cc1 [sagittatoside A]")
14.3

a. CC(C)=CCc1c(O)cc(O)c2c(=O)c(OC3OC(C)C(O)C(O)C3O)c(-c3ccc(O)cc3)oc12 (stereo not drawn) [baohuoside II]
b. O=C(/C=C/c1ccc(O)c(O)c1)O[C@@H]1C[C@@](O)(C(=O)O)C[C@@H](O)[C@@H]1O
Of a and b , which one carries the higher reported MRT inf? Pick one; state its label. a
(a: 16.5 h, b: 3.25 h)
